Assay: eLogD by shake flask method in aqueous buffer/octanol mixture
Settings: linear peptides, N terminal acetylated and C terminal amide; pH 7.4, octanol-water
Residues, ends and D or L forms follow the SMILES beside them.
Endpoint: eLogD (7.4)

>>> data_value("CC[C@H](C)[C@H](NC(C)=O)C(=O)N[C@@H](Cc1ccccc1)C(=O)N[C@@H](C)C(N)=O [IFA] (Ac-Ile-Phe-Ala-NH2)")
0.46
>>> data_value("CC[C@H](C)[C@H](NC(=O)[C@H](CCC(=O)O)NC(C)=O)C(=O)N[C@@H](Cc1ccccc1)C(N)=O [EIF (D718)] (Ac-Glu-Ile-Phe-NH2)")
"−2.30"
>>> data_value("CC(=O)N[C@@H](CCCNC(=N)N)C(=O)N[C@@H](Cc1ccccc1)C(=O)N[C@@H](CC(C)C)C(N)=O [RFL] (Ac-Arg-Phe-Leu-NH2)")
"−1.12"
>>> data_value("CC[C@H](C)[C@H](NC(C)=O)C(=O)N[C@@H](CCSC)C(=O)N[C@@H](Cc1ccccc1)C(N)=O [IMF] (Ac-Ile-Met-Phe-NH2)")
1.25
>>> data_value("CC(=O)N[C@@H](C)C(=O)N[C@@H](Cc1ccc(O)cc1)C(=O)N[C@@H](CC(C)C)C(N)=O [AYL] (Ac-Ala-Tyr-Leu-NH2)")
"−0.06"
>>> data_value("CC(=O)N[C@@H](Cc1c[nH]c2ccccc12)C(=O)NCC(=O)NCC(N)=O [WGG] (Ac-Trp-Gly-Gly-NH2)")
"−0.80"
>>> data_value("CC[C@H](C)[C@H](NC(=O)[C@H](CC(C)C)NC(=O)[C@H](CO)NC(C)=O)C(N)=O [SLI] (Ac-Ser-Leu-Ile-NH2)")
"−0.06"
